Values compiled from patent US20240327334A1.

Assayed System: UniProt P0DTD1
Protocol Notes: SARS-CoV-2 Papain-like (PLpro) protease biochemical enzyme inhibition assay (ubiquitin-fluorophore substrate, Ub-R110)
Test Settings: Ub-R110 substrate; run in duplicate; read-out: PLpro IC50
Metric: IC50

Input: Return IC50 (reported value) for this compound: O=C(NCC#CC(=O)N1CC(F)(F)C1)C(=O)NCc1ccccc1C(=O)NC1(c2cccc3ccccc23)CC1
Output: < 0.1 µM

Input: Return IC50 (reported value) for this compound: Cc1cccnc1C#CCNC(=O)C(=O)NCc1ccccc1C(=O)NC1(c2ccc3nn(C)cc3c2)CC1
Output: < 0.1 µM

Input: Return IC50 (reported value) for this compound: N#CCNC(=O)C(=O)NCc1ccccc1C(=O)NC1(c2cccc3c(C#N)cccc23)CC1
Output: < 0.1 µM

Input: Return IC50 (reported value) for this compound: O=C(C#CCNC(=O)C(=O)NCc1ccccc1C(=O)NC1(c2cccc3ccccc23)CC1)N[C@]12C[C@](C(F)(F)F)(C1)C2
Output: < 0.1 µM

Input: Return IC50 (reported value) for this compound: CC(C)(C)OC(=O)NNC(=O)/C=C/CNC(=O)C(=O)NCc1ccccc1C(=O)NC1(c2cccc3ccccc23)CC1
Output: 0.1 to 1 µM

Input: Return IC50 (reported value) for this compound: C=CC(=O)NNC(=O)C(=O)NCc1ccccc1C(=O)N[C@H](C)c1cccc2ccccc12
Output: 0.1 to 1 µM

Input: Return IC50 (reported value) for this compound: O=C(NCC#Cc1ncc(F)cn1)C(=O)NCc1ccccc1C(=O)NC1(c2cc(F)cc(-c3cnn(C4CC4)c3)c2)CC1
Output: < 0.1 µM

Input: Return IC50 (reported value) for this compound: Cn1cc2c(F)c(C3(NC(=O)c4ccccc4CNC(=O)C(=O)NCC#N)CC3)ccc2n1
Output: < 0.1 µM

Input: Return IC50 (reported value) for this compound: O=C(NCC#Cc1nccs1)C(=O)NCc1ccccc1C(=O)NC1(c2cc(-c3cnn(C4CC4)c3)cc(C3CC3)c2)CC1
Output: < 0.1 µM

Input: Return IC50 (reported value) for this compound: N#Cc1ccc(C#CCNC(=O)C(=O)NCc2ccccc2C(=O)NC2(c3cccc4ccccc34)COC2)c(F)c1
Output: > 10 µM

Input: Return IC50 (reported value) for this compound: CC(C)[C@@H](C#Cc1ccccn1)NC(=O)C(=O)NCc1ccccc1C(=O)NC1(c2ccc3nn(C)cc3c2)CC1
Output: > 10 µM

Input: Return IC50 (reported value) for this compound: C#CCNC(=O)C(=O)NCc1ccc(-c2ccn(C(F)F)n2)cc1C(=O)NC1(c2ccc(F)c3ccccc23)CC1
Output: < 0.1 µM

Input: Return IC50 (reported value) for this compound: C[C@@H](C#Cc1ccc(C#N)c(F)c1)NC(=O)C(=O)NCc1ccccc1C(=O)NC1(c2ccc3nn(C)cc3c2)CC1
Output: < 0.1 µM
